tested on: astro; assay: Drug repurposing screens with cells derived from glioblastoma tumor samples (AID 1345199); conditions: viability, ATP luminescence, 48 h; series mostly up to 45.9 µM; note: nearly all actives have a fitted effect of over 40% in size
Results filed as inconclusive are left out. Calls of active or inactive are those of the source. Calls come from the whole dose curve; as a rule, active = well fitted inhibition curve with a large enough effect; inconclusive = small, poorly fitted or top-dose-only effect; inactive = flat fitted curve, though single readings scatter.
Entry note: the call must match one of 1 for active, 0 for inactive

- Molecule: "CC(COc1ccccc1)NC(C)C(O)c1ccc(O)cc1 (stereo unspecified)"
  Class assignment: 0
- Molecule: "CC/C=C(\\C(=O)N[C@@H]1C(=O)N2C(C(=O)OCOC(=O)C(C)(C)C)=C(COC(N)=O)CS[C@H]12)c1csc(N)n1"
  Class assignment: 0
- Molecule: "CC(=O)Oc1c(C)c(C)c2c(c1C)CC[C@@](C)(CCC[C@H](C)CCC[C@H](C)CCCC(C)C)O2"
  Class assignment: 0
- Molecule: "CSc1ccc2c(c1)C(N1CCN(C)CC1)Cc1ccccc1S2 (stereo unspecified)"
  Class assignment: 1

Could you now look at the following molecule, please?
# input Which outcome did this test record for the molecule `CC(=O)c1ccc2c(c1)N(CCCN(C)C)c1ccccc1S2` ?
# output 0
